tested on: ACHN renal; experiment: NCI-60 one-dose screen, 48 h (100 = growth as untreated, 0 = no growth, -100 = all killed); details: 10 µM unless noted
About 83,000 compounds went through this panel and 20% of them were active in at least one assay; those are over-represented in the sample as a whole.
What growth was measured for each of the following?
Numbers only, in %.

>>> numeric_value("Cc1cc(C(=O)c2ccccc2)c(C)c2c1[nH]c1ccc(Cl)cc12")
24.8
>>> numeric_value("Cc1cc(=O)[nH]c(N=Nc2c(O)[nH]c3ccccc23)n1")
101
>>> numeric_value("Cn1c2c(c3ccc(Cl)c(Cl)c31)C(C#N)C1(CCNCC1)NC2=O (stereo not drawn)")
26.8
>>> numeric_value("CCCCCS(=O)(=O)Nc1ccc(C(=O)O)cc1")
104
>>> numeric_value("Cc1ccc(Nc2ccc(Nc3ccc(C)cc3)c3c2C(=O)c2cccc(O)c2C3=O)cc1")
91

Return reported growth values for all items listed beneath this line.
1. Cn1cc2c(c1)-c1nc(Nc3ccccc3)ncc1CC2
2. C[C@H]1[C@H]2[C@H]3CC[C@@H]4[C@@]5(C)C/C(=C/c6ccco6)C(=O)C(C)(C)[C@@H]5CC[C@@]4(C)[C@]3(C)CC[C@]23CO[C@]1(C)[C@@H](C(=O)/C=C\c1ccco1)C3
3. O=C(Nc1ccccc1-c1nc2ccccc2c(=O)[nH]1)c1cc2ccccc2[nH]1
4. CNS(=O)(=O)c1n[nH]nc1-c1cc(C(C)(C)C)c(O)c(C(C)(C)C)c1
5. COc1ccc(-c2cc(-c3ccc(Nc4nc(Nc5ccc(Cl)cc5)nc(Nc5ccc(Cl)cc5)n4)cc3)nc(N)c2C#N)cc1
6. COc1ccc(OC)c(-c2c(C#N)c(-c3ccc(Cl)cc3)nc3c2c(-c2ccccc2)nn3-c2ccccc2)c1

Given back:
[47.8, 68.4, 86.7, 98.7, -59.5, 102]

Count: 6. Required value per item: growth.
1. CC(=O)OC[C@H]1OC(Sc2sc(C(=O)c3ccc(Br)cc3)c(N)c2-c2nc3ccccc3s2)[C@H](OC(C)=O)[C@@H](OC(C)=O)[C@@H]1OC(C)=O (stereo partly drawn)
2. CC1(C)CC(=O)CC2(C1)N=C(N)Nc1nc3ccccc3n12 (stereo not drawn)
3. CNc1ccc(NC)c2c1C(=O)c1ccccc1C2=O
4. COc1ccc(-c2nc(SCCC(C)C)nc(N/N=C\c3cccc([N+](=O)[O-])c3)c2C#N)cc1
5. COC1=CC(=O)C[C@@H](C)[C@]12Oc1c(Cl)c(OC)cc(OC)c1C2=O
6. CCN(CC)CCn1nc2c3c(cccc3c1=O)-c1ccccc1-2

Given back:
1: 54.9; 2: 91.9; 3: 77.7; 4: 15.8; 5: 99.9; 6: -41.7

Asked: Form field: reported growth of C=C(C)[C@@H]1CC[C@]2(C(=O)NC3CCCCC3)CC[C@]3(C)[C@H](CC[C@@H]4[C@@]5(C)CCC(=O)C(C)(C)[C@@H]5CC[C@]43C)[C@@H]12
Given back: 99.8

---

tested on: NCI/ADR-RES ovarian; experiment: NCI-60 one-dose screen, 48 h; details: 10 µM unless noted
This is part of a sample that, as a whole, favours compounds with a hit. Of some 83,000 tested, about 20% had one in any assay. Activity calls are given as the source filed them. How the source made its calls: active means growth percent below 10; inactive means the rest.
Outcome (select one): true (1) for active, false (0) for inactive

Look over these answered cases.
>>> group_label("COC(=O)[C@]12CC[C@@H](C)[C@H](C)[C@@H]1C1=CC[C@@H]3[C@@]4(C)C(C=O)=C[C@@](C)(COC(=O)c5ccco5)[C@@H]4C(=O)C[C@@]3(C)[C@]1(C)CC2")
"false (0)"
>>> group_label("O=C(NCCCNc1cc(-c2cn(-c3ccccc3)nc2-c2cccc(O)c2)ccn1)c1ccc(F)cc1")
"false (0)"

Now consider a different compound.
Asked: For N=C(N)c1ccc(-c2ccc(-c3cncc4ccccc34)s2)s1 , which call appears in the assay record?
Given back: true (1)
